Read-out: Matrix Metallopeptidase 9 (MMP9), MMP9 (gene 4318)
Assay: BSK_KF3CT_MMP9: BioMAP Diversity Plus: KF3CT Assay for Matrix Metallopeptidase 9 (MMP9) Biomarker Activity (AID 2283074)
Settings: primary human keratinocytes with fibroblasts; actives raise or lower the signal
Active and inactive are the calls of the source. How the source made its calls: active means hit-call score of the fitted dose curve at least 0.9, where 1 is the maximum; inactive means score below 0.9.
// allowed return values: 1 (active), 0 (inactive)

What is the recorded call for this compound in the test? C1=CC2C3C=CC(C3)C2C1 (centres undefined)
0

What is the recorded call for this compound in the test? `CC(=O)Nc1ccc(C(=O)CCl)cc1`
1

What is the recorded call for this compound in the test? `CN(C)C(=O)Nc1ccc(Oc2ccc(Cl)cc2)cc1`
0

What is the recorded call for this compound in the test? `COc1ccc(OC)c(N=Nc2c(O)ccc3ccccc23)c1`
1

What is the recorded call for this compound in the test? `Cc1cc(CCC(=O)OCCOCCOCCOC(=O)CCc2cc(C)c(O)c(C(C)(C)C)c2)cc(C(C)(C)C)c1O`
0

What is the recorded call for this compound in the test? `IC(I)I`
0

What is the recorded call for this compound in the test? `c1ccc(CCc2ccccc2)cc1`
1

What is the recorded call for this compound in the test? `Oc1c(Cl)cc(Cl)c(Cl)c1Cc1c(O)c(Cl)cc(Cl)c1Cl`
1

What is the recorded call for this compound in the test? `CCN(CC)C(=O)N(CC)CC`
0

What is the recorded call for this compound in the test? `CC=Cc1ccc(OCC)c(O)c1`
0

What is the recorded call for this compound in the test? `CC1(C)C2=CCCC(C)(C)[C@]23CC[C@H]1C3`
0

What is the recorded call for this compound in the test? `CCOC(=O)C(C#N)=C(c1ccccc1)c1ccccc1`
0

What is the recorded call for this compound in the test? `CCCCCC(C=O)=Cc1ccccc1`
1

What is the recorded call for this compound in the test? CC(C=O)Cc1ccc(C(C)(C)C)cc1 (centres undefined)
1

What is the recorded call for this compound in the test? `c1ccc(Oc2ccccc2)cc1`
1

What is the recorded call for this compound in the test? `O=C1OC2(c3ccccc31)c1ccc(O)c(Br)c1Oc1c2ccc(O)c1Br`
0

What is the recorded call for this compound in the test? CC(=O)C1(C)CC2=C(CCCC2(C)C)CC1C (centres undefined)
1

What is the recorded call for this compound in the test? `O=C1c2ccccc2C(=O)c2c(O)ccc(O)c21`
0

What is the recorded call for this compound in the test? `CSCCC=O`
0

What is the recorded call for this compound in the test? `Clc1cc(Cl)c(-c2c(Cl)c(Cl)cc(Cl)c2Cl)cc1Cl`
1

What is the recorded call for this compound in the test? `C=C(C)C(=O)OCC(CC)(COC(=O)C(=C)C)COC(=O)C(=C)C`
0

What is the recorded call for this compound in the test? `O=C(Nc1ccc2c(O)c(N=Nc3ccc(N=Nc4ccc(S(=O)(=O)O)cc4)cc3)c(S(=O)(=O)O)cc2c1)c1ccccc1`
0

What is the recorded call for this compound in the test? `O=CN1CCOCC1`
0

What is the recorded call for this compound in the test? CCC(C)c1cc([N+](=O)[O-])cc([N+](=O)[O-])c1OC(=O)OC(C)C (centres undefined)
1

###

Assay: ATG_NRF2_ARE_CIS: Attagene CIS-FACTORIAL HepG2 Assay for human Nuclear Factor Erythroid 2 Related Factor 2 (NFR2) response to Antioxidant Response Elements (ARE) (AID 2282992)
Details: HepG2 Attagene ARE/NRF2 reporter, transcription factor activity; actives raise or lower the signal
The source made the active and inactive calls. How the source made its calls: active means hit-call score of the fitted dose curve at least 0.9, where 1 is the maximum; inactive means score below 0.9.
// allowed return values: active, inactive

What is the recorded call for this molecule in the test? `NCc1ccco1`
inactive

What is the recorded call for this molecule in the test? `C=CC(=C)CCCC(C)(C)OC(C)=O`
inactive

What is the recorded call for this molecule in the test? CCCCC(CC)C(=O)OC(C)C (configuration not stated)
inactive

What is the recorded call for this molecule in the test? `CCOC(=O)C(C#N)=C(c1ccccc1)c1ccccc1`
active

What is the recorded call for this molecule in the test? `CC(C)CCCCCCCCCCCCCCC(=O)O`
inactive

What is the recorded call for this molecule in the test? CCC(C)c1cc([N+](=O)[O-])cc([N+](=O)[O-])c1OC(=O)OC(C)C (configuration not stated)
active

What is the recorded call for this molecule in the test? `CCCCCCOC(=O)C(C)C`
inactive

What is the recorded call for this molecule in the test? `COc1cc([C@@H]2c3cc4c(cc3[C@@H](O[C@@H]3O[C@@H]5CO[C@@H](C)O[C@H]5[C@H](O)[C@H]3O)[C@H]3COC(=O)[C@H]23)OCO4)cc(OC)c1O`
inactive

What is the recorded call for this molecule in the test? `CCCCCCOCCOCCO`
inactive

What is the recorded call for this molecule in the test? `CC1(C)COCN1`
inactive

What is the recorded call for this molecule in the test? CCCC1O[C@@H]2C[C@H]3[C@@H]4CCC5=CC(=O)C=C[C@]5(C)[C@H]4[C@@H](O)C[C@]3(C)[C@]2(C(=O)CO)O1 (some centres not stated)
active

What is the recorded call for this molecule in the test? CCCCCCC(O)CCCCCCCCCCC(=O)O (configuration not stated)
active

What is the recorded call for this molecule in the test? COCCc1ccc(OCC(O)CNC(C)C)cc1 (configuration not stated)
inactive

What is the recorded call for this molecule in the test? `Cc1c(C2(c3cc(Br)c(O)c(Br)c3C)OS(=O)(=O)c3ccccc32)cc(Br)c(O)c1Br`
active

What is the recorded call for this molecule in the test? `COC(=O)Nc1ccc(Cl)c(Cl)c1`
active

What is the recorded call for this molecule in the test? `CCCC(=O)c1ccccc1`
inactive

What is the recorded call for this molecule in the test? `O=P(O)(O)O`
inactive

What is the recorded call for this molecule in the test? `CCCCCCCC(=O)OCCCCCC`
inactive

What is the recorded call for this molecule in the test? Cc1c(OCC(F)(F)F)ccnc1CS(=O)c1nc2ccccc2[nH]1 (configuration not stated)
active

What is the recorded call for this molecule in the test? `Cc1ccc2c(c1)C(=O)OC2=O`
inactive

What is the recorded call for this molecule in the test? CCCCC(CC)COC(C)=O (configuration not stated)
inactive

What is the recorded call for this molecule in the test? CC(C)=CCCC(C)CC(=O)O (configuration not stated)
inactive

What is the recorded call for this molecule in the test? `Nc1ccc(N)c2c1C(=O)c1ccccc1C2=O`
active

What is the recorded call for this molecule in the test? `CC=CC=CCOC(=O)C(C)C`
active

What is the recorded call for this molecule in the test? `CCCCC(CC)(CO)CO`
inactive

What is the recorded call for this molecule in the test? `C=C1CC[C@H](O)C/C1=C/C=C1\CCC[C@]2(C)[C@@H]([C@H](C)/C=C/[C@H](C)C(C)C)CC[C@@H]12`
active

What is the recorded call for this molecule in the test? `CN(C)C(=S)SC(=S)N(C)C`
active

###

Read-out: Tumor necrosis factor (Homo sapiens)
Experiment: BSK_LPS_TNFa: BioMAP Diversity Plus: LPS Assay for Tumour Necrosis Factor alpha (TNFa) Biomarker Activity (AID 2283085)
Details: primary human HUVEC with PBMC; actives raise or lower the signal
Active and inactive are the calls of the source. How the source made its calls: active means hit-call score of the fitted dose curve at least 0.9, where 1 is the maximum; inactive means score below 0.9.
// allowed return values: y = active, n = inactive

What is the recorded call for this compound in the test? `COc1cc(Cl)c(OC)cc1N`
n

What is the recorded call for this compound in the test? `C=C(C)C(=O)OCCOCCOCCOC(=O)C(=C)C`
n

What is the recorded call for this compound in the test? `CCCCOC(=O)CCCCCCCC(=O)OCCCC`
n

What is the recorded call for this compound in the test? `O=CN1CCOCC1`
n

What is the recorded call for this compound in the test? `CC(=O)Nc1ccc(C(=O)CCl)cc1`
y

What is the recorded call for this compound in the test? `c1ccc(CCc2ccccc2)cc1`
n

What is the recorded call for this compound in the test? `CCCCCC(C=O)=Cc1ccccc1`
n

What is the recorded call for this compound in the test? `C[C@@H]1CCN(C(=O)[C@H](CCCN=C(N)N)NS(=O)(=O)c2cccc3c2NC[C@H](C)C3)[C@@H](C(=O)O)C1`
n

What is the recorded call for this compound in the test? `IC(I)I`
n

What is the recorded call for this compound in the test? `C=C(C)C(=O)OCCOCCOCCOCCOC(=O)C(=C)C`
n

What is the recorded call for this compound in the test? `O=C1c2ccccc2C(=O)c2c(O)ccc(O)c21`
y

What is the recorded call for this compound in the test? CC(CN=Cc1ccccc1O)N=Cc1ccccc1O (stereo not drawn)
n

What is the recorded call for this compound in the test? `O=C(Nc1ccc2c(O)c(N=Nc3ccc(N=Nc4ccc(S(=O)(=O)O)cc4)cc3)c(S(=O)(=O)O)cc2c1)c1ccccc1`
n

What is the recorded call for this compound in the test? CCC(C)c1cc([N+](=O)[O-])cc([N+](=O)[O-])c1OC(=O)OC(C)C (stereo not drawn)
y

What is the recorded call for this compound in the test? `CC(=O)c1c(C)c([N+](=O)[O-])c(C(C)(C)C)c([N+](=O)[O-])c1C`
n

What is the recorded call for this compound in the test? `CC1(C)CCC[C@]2(C)[C@H]3CCO[C@]3(C)CC[C@@H]12`
n

What is the recorded call for this compound in the test? `CN(c1nccc(=O)[nH]1)C1CCN(c2nc3ccccc3n2Cc2ccc(F)cc2)CC1`
n

What is the recorded call for this compound in the test? CC(C=O)Cc1ccc(C(C)(C)C)cc1 (stereo not drawn)
n

What is the recorded call for this compound in the test? `CCOC(=O)C(C#N)=C(c1ccccc1)c1ccccc1`
n

What is the recorded call for this compound in the test? `CC(C)(C)CC(C)(C)c1ccc(OCCOCC[N+](C)(C)Cc2ccccc2)cc1`
y

What is the recorded call for this compound in the test? C1=CC2C3C=CC(C3)C2C1 (stereo not drawn)
n

What is the recorded call for this compound in the test? `CCCCCCCCCCCCCCCC(=O)OC/C=C(C)/C=C/C=C(C)/C=C/C1=C(C)CCCC1(C)C`
n

What is the recorded call for this compound in the test? `O=C1OC2(c3ccccc31)c1ccc(O)c(Br)c1Oc1c2ccc(O)c1Br`
n
